The following molecules are shown together with reported MIC PA14 2P4 (pmrB) values.
Tested on: PA14 2P4 (pmrB)
Study Conditions: MH pH 7.4, 16–20 h at 37 °C
Where a SMILES comes first, the peptide text is derived from it. [ ]: non-standard residue; d: D form. Nleu = CC(C)CNCC(=O)O; Nlys = NCCCCNCC(=O)O
Readout Label: MIC PA14 2P4 (pmrB) (µg/mL)

{"Molecule": "CC(C)C[C@H](NC(=O)[C@H](CC(C)C)NC(=O)[C@H](CC(C)C)NC(=O)[C@H](CCCCN)NC(=O)[C@H](CC(C)C)NC(=O)[C@H](CC(C)C)NC(=O)CN(CCCCN)C(=O)[C@H](CC(C)C)NC(=O)[C@H](CC(C)C)NC(=O)CN(CCCCN)C(=O)CNCCCCN)C(N)=O [EB6, kkLLkLLKLLL] (H-[Nlys][Nlys]LL[Nlys]LLKLLL-NH2)", "Target Or System": "PA14 2P4 (pmrB)", "Modifier": "=", "Reported Value": 32}
{"Molecule": "CC(C)C[C@H](NC(=O)[C@H](CCCCN)NC(=O)CNCCCCN)C(=O)N[C@@H](CC(C)C)C(=O)N[C@@H](CCCCN)C(=O)N[C@@H](CC(C)C)C(=O)N[C@@H](CC(C)C)C(=O)N[C@@H](CCCCN)C(=O)N[C@@H](CC(C)C)C(=O)N[C@@H](CC(C)C)C(=O)N(CC(N)=O)CC(C)C [EB1] (H-[Nlys]KLLKLLKLL[Nleu]-NH2; N-terminus assumed)", "Target Or System": "PA14 2P4 (pmrB)", "Modifier": "=", "Reported Value": 32}
{"Molecule": "CC(C)C[C@H](NC(=O)[C@H](CC(C)C)NC(=O)[C@H](CC(C)C)NC(=O)[C@@H](CCCCN)NC(=O)[C@H](CC(C)C)NC(=O)[C@H](CC(C)C)NC(=O)[C@@H](CCCCN)NC(=O)[C@H](CC(C)C)NC(=O)[C@H](CC(C)C)NC(=O)[C@@H](CCCCN)NC(=O)[C@H](N)CCCCN)C(N)=O [ln69, kkLLkLLkLLL, reference compound] (H-[dK][dK]LL[dK]LL[dK]LLL-NH2)", "Target Or System": "PA14 2P4 (pmrB)", "Modifier": "=", "Reported Value": 32}
{"Molecule": "CC(C)C[C@H](NC(=O)[C@H](CC(C)C)NC(=O)[C@H](CC(C)C)NC(=O)[C@H](CCCCN)NC(=O)[C@H](CC(C)C)NC(=O)[C@H](CC(C)C)NC(=O)CN(CCCCN)C(=O)CN(CC(C)C)C(=O)CN(CC(C)C)C(=O)CN(CCCCN)C(=O)CNCCCCN)C(N)=O [EB5, kkllkLLKLLL] (H-[Nlys][Nlys][Nleu][Nleu][Nlys]LLKLLL-NH2)", "Target Or System": "PA14 2P4 (pmrB)", "Modifier": ">", "Reported Value": 32}

====

# MIC K. pneumoniae NCTC418, full MH at pH 7.4 per record follows
System: K. pneumoniae NCTC418
Study Conditions: NCTC418, 4 h, pH 7.4
Where a SMILES comes first, the peptide text is derived from it. [ ]: non-standard residue; d: D form. Nlys = NCCCCNCC(=O)O
Readout Label: MIC K. pneumoniae NCTC418, full MH at pH 7.4 (ug/mL)

{"Molecule": "CC(C)C[C@H](NC(=O)[C@H](CC(C)C)NC(=O)[C@H](CC(C)C)NC(=O)CN(CCCCN)C(=O)[C@H](CC(C)C)NC(=O)[C@H](CC(C)C)NC(=O)CN(CCCCN)C(=O)[C@H](CC(C)C)NC(=O)[C@H](CC(C)C)NC(=O)CN(CCCCN)C(=O)CNCCCCN)C(N)=O [EB7, kkLLkLLkLLL] (H-[Nlys][Nlys]LL[Nlys]LL[Nlys]LLL-NH2)", "Modifier": ">", "Reported Value": 32}
{"Molecule": "CC(C)C[C@H](NC(=O)[C@H](CC(C)C)NC(=O)[C@H](CC(C)C)NC(=O)[C@H](CCCCN)NC(=O)[C@H](CC(C)C)NC(=O)[C@H](CC(C)C)NC(=O)CN(CCCCN)C(=O)[C@H](CC(C)C)NC(=O)[C@H](CC(C)C)NC(=O)CN(CCCCN)C(=O)CNCCCCN)C(N)=O [EB6, kkLLkLLKLLL] (H-[Nlys][Nlys]LL[Nlys]LLKLLL-NH2)", "Modifier": "=", "Reported Value": 8}

====

System: E. coli W3110
Study Conditions: CSV; full MH at pH 7.4
Where a SMILES comes first, the peptide text is derived from it. [ ]: non-standard residue; d: D form. Nleu = CC(C)CNCC(=O)O; Nlys = NCCCCNCC(=O)O

{"Molecule": "CC(C)CN(CC(N)=O)C(=O)CN(CC(C)C)C(=O)CN(CC(C)C)C(=O)CN(CCCCN)C(=O)CN(CC(C)C)C(=O)CN(CC(C)C)C(=O)CN(CCCCN)C(=O)CN(CC(C)C)C(=O)CN(CC(C)C)C(=O)CN(CCCCN)C(=O)CNCCCCN [EB11, kkllkllklll] (H-[Nlys][Nlys][Nleu][Nleu][Nlys][Nleu][Nleu][Nlys][Nleu][Nleu][Nleu]-NH2)", "MIC E. coli W3110, full MH at pH 7.4": ">32 ug/mL"}
{"Molecule": "CC(C)C[C@H](NC(=O)[C@H](CC(C)C)NC(=O)[C@H](CCCCN)NC(=O)[C@@H](N)CCCCN)C(=O)N[C@@H](CCCCN)C(=O)N[C@@H](CC(C)C)C(=O)N[C@@H](CC(C)C)C(=O)N[C@@H](CCCCN)C(=O)N(CC(=O)N(CC(=O)N(CC(N)=O)CC(C)C)CC(C)C)CC(C)C [EB3] (H-KKLLKLLK[Nleu][Nleu][Nleu]-NH2)", "MIC E. coli W3110, full MH at pH 7.4": ">32 ug/mL"}

====

# maps each entry to its MIC E. coli W3110, […] MH at pH 8.5
Tested on: E. coli W3110
Study Conditions: CSV; […] MH at pH 8.5
Where a SMILES comes first, the peptide text is derived from it. [ ]: non-standard residue; d: D form. Nleu = CC(C)CNCC(=O)O; Nlys = NCCCCNCC(=O)O

{"Compound": "CC(C)C[C@H](NC(=O)[C@H](CC(C)C)NC(=O)[C@H](CCCCN)NC(=O)[C@@H](N)CCCCN)C(=O)N[C@@H](CCCCN)C(=O)N[C@@H](CC(C)C)C(=O)N[C@@H](CC(C)C)C(=O)N[C@@H](CCCCN)C(=O)N(CC(=O)N(CC(=O)N(CC(N)=O)CC(C)C)CC(C)C)CC(C)C [EB3] (H-KKLLKLLK[Nleu][Nleu][Nleu]-NH2)", "Target Or System": "E. coli W3110", "MIC E. coli W3110, […] MH at pH 8.5": "3 ug/mL"}
{"Compound": "CC(C)CN(CC(N)=O)C(=O)CN(CC(C)C)C(=O)CN(CC(C)C)C(=O)CN(CCCCN)C(=O)CN(CC(C)C)C(=O)CN(CC(C)C)C(=O)CN(CCCCN)C(=O)CN(CC(C)C)C(=O)CN(CC(C)C)C(=O)CN(CCCCN)C(=O)CNCCCCN [EB11, kkllkllklll] (H-[Nlys][Nlys][Nleu][Nleu][Nlys][Nleu][Nleu][Nlys][Nleu][Nleu][Nleu]-NH2)", "Target Or System": "E. coli W3110", "MIC E. coli W3110, […] MH at pH 8.5": "3 ug/mL"}
{"Compound": "CC(C)C[C@H](NC(=O)[C@H](CC(C)C)NC(=O)[C@H](CC(C)C)NC(=O)[C@H](CCCCN)NC(=O)[C@H](CC(C)C)NC(=O)[C@H](CC(C)C)NC(=O)CN(CCCCN)C(=O)[C@H](CC(C)C)NC(=O)[C@H](CC(C)C)NC(=O)CN(CCCCN)C(=O)CNCCCCN)C(N)=O [EB6, kkLLkLLKLLL] (H-[Nlys][Nlys]LL[Nlys]LLKLLL-NH2)", "Target Or System": "E. coli W3110", "MIC E. coli W3110, […] MH at pH 8.5": "2 ug/mL"}
{"Compound": "CC(C)C[C@H](NC(=O)CN(CC(C)C)C(=O)[C@H](CC(C)C)NC(=O)CN(CCCCN)C(=O)[C@H](CC(C)C)NC(=O)CN(CC(C)C)C(=O)[C@H](CCCCN)NC(=O)CN(CC(C)C)C(=O)[C@H](CC(C)C)NC(=O)CN(CCCCN)C(=O)[C@@H](N)CCCCN)C(N)=O [EB9, KkLlKlLkLlL] (H-K[Nlys]L[Nleu]K[Nleu]L[Nlys]L[Nleu]L-NH2)", "Target Or System": "E. coli W3110", "MIC E. coli W3110, […] MH at pH 8.5": "2 ug/mL"}
{"Compound": "CC(C)C[C@H](NC(=O)CN(CC(C)C)C(=O)[C@H](CCCCN)NC(=O)CNCCCCN)C(=O)N(CCCCN)CC(=O)N[C@@H](CC(C)C)C(=O)N(CC(=O)N[C@@H](CCCCN)C(=O)N(CC(=O)N[C@@H](CC(C)C)C(=O)N(CC(N)=O)CC(C)C)CC(C)C)CC(C)C [EB10, kKlLkLlKlLl] (H-[Nlys]K[Nleu]L[Nlys]L[Nleu]K[Nleu]L[Nleu]-NH2)", "Target Or System": "E. coli W3110", "MIC E. coli W3110, […] MH at pH 8.5": "3 ug/mL"}
{"Compound": "CC(C)C[C@H](NC(=O)[C@H](CC(C)C)NC(=O)[C@H](CC(C)C)NC(=O)[C@H](CCCCN)NC(=O)[C@H](CC(C)C)NC(=O)[C@H](CC(C)C)NC(=O)CN(CCCCN)C(=O)CN(CC(C)C)C(=O)CN(CC(C)C)C(=O)CN(CCCCN)C(=O)CNCCCCN)C(N)=O [EB5, kkllkLLKLLL] (H-[Nlys][Nlys][Nleu][Nleu][Nlys]LLKLLL-NH2)", "Target Or System": "E. coli W3110", "MIC E. coli W3110, […] MH at pH 8.5": "2 ug/mL"}

The values you see were collected from paper PMC10714400.
